Where do the numbers come from? From the supplement of paper PMC3545927.

- test.system: furin, P09958;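 note: purified furin at 1:10 enzyme:substrate in 50 mM HEPES pH 7.5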
- Sequence (P09958 whole entry): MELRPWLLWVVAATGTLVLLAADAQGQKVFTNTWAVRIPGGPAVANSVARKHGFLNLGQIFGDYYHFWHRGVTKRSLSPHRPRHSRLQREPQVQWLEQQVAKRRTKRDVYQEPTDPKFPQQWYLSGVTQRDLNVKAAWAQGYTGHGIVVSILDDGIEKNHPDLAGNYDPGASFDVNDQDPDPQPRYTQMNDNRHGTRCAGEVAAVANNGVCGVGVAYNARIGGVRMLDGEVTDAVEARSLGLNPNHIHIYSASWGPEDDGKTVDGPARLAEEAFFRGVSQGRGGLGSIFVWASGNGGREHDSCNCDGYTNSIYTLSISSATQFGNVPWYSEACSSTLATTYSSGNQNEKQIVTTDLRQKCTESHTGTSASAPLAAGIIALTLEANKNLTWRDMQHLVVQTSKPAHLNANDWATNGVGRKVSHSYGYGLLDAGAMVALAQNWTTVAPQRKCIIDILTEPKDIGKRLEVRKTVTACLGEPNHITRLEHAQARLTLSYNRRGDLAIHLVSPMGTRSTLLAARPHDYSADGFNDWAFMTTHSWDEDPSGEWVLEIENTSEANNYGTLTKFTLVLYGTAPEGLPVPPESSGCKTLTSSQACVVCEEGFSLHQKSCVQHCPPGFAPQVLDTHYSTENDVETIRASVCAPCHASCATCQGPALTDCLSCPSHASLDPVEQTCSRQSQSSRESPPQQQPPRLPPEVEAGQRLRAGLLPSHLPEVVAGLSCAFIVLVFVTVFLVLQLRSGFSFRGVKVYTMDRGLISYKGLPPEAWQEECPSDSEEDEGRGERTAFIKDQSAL
- assay.explanation: furin cleavage Z-score vs untreated control; higher = more cleavage, active = 3.5 or more, inactive = 1 or less, 8 variable residues between constant flanks
- condition.description: 15 min
The other results are listed elsewhere or left out. No count for the full screen is at hand.
Choose the fitting class; nothing outside active, inactive is accepted.

primary_sequence="CASQFRSKRSAGNASASA [FS-1085]" label_class=active

Problem: Which outcome was assigned to CAEVVTSMWVAGNASASA [HC2206] in this test?
Result: inactive

Problem: Also need CASSTRSKRSAGNASASA [FS-874] , thanks.
Result: active
